Examples of compounds with documented pKi follow.
# SYSTEM_NAME: Adenosine receptor A3 (Homo sapiens, UniProt P0DMS8)
# Sequence (P0DMS8 whole entry): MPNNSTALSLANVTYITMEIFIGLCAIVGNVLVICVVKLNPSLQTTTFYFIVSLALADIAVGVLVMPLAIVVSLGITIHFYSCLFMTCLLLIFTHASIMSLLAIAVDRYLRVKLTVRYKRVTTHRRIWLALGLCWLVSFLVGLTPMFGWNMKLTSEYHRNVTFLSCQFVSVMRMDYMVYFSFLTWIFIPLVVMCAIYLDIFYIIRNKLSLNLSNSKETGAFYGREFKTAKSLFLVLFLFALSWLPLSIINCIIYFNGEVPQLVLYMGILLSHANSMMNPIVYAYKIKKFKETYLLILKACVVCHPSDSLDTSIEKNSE
# TEST_DETAILS: Displacement of [3H]NECA from human recombinant adenosine A3 receptor expressed in CHO cells by liquid scintillation counting
By convention, pKi is the negative base-10 log of a molar concentration.

# example entries with known answers
{"COMPOUND_STRUCTURE_STRING": "O=C(Nc1nc(-c2ccccc2)nc2c1nnn2Cc1ccccc1)c1ccccc1Cl", "EXPERIMENTAL_VALUE": 6.39}
{"COMPOUND_STRUCTURE_STRING": "O=C(Nc1nc(-c2ccccc2)nc2c1nnn2Cc1ccccc1)c1ccccc1I", "EXPERIMENTAL_VALUE": 6.99}
{"COMPOUND_STRUCTURE_STRING": "COc1cccc(C(=O)Nc2nc(-c3ccccc3)nc3c2nnn3Cc2ccccc2)c1", "EXPERIMENTAL_VALUE": 5.26}
{"COMPOUND_STRUCTURE_STRING": "Nc1ccccc1C(=O)Nc1nc(-c2ccccc2)nc2c1nnn2Cc1ccccc1", "EXPERIMENTAL_VALUE": 5.39}
{"COMPOUND_STRUCTURE_STRING": "O=C(Nc1nc(-c2ccccc2)nc2c1nnn2Cc1ccccc1)c1cccc(C(F)(F)F)c1", "EXPERIMENTAL_VALUE": 5.60}
{"COMPOUND_STRUCTURE_STRING": "O=C(Nc1nc(-c2ccccc2)nc2c1nnn2Cc1ccccc1)c1ccc(Cl)cc1", "EXPERIMENTAL_VALUE": 5.45}
{"COMPOUND_STRUCTURE_STRING": "O=C(Nc1nc(-c2ccccc2)nc2c1nnn2Cc1ccccc1)c1cccc(F)c1", "EXPERIMENTAL_VALUE": 5.24}
{"COMPOUND_STRUCTURE_STRING": "O=C(Nc1nc(-c2ccccc2)nc2c1nnn2Cc1ccccc1)C1CCCC1", "EXPERIMENTAL_VALUE": 5.33}

The recorded pKi for entry Nc1ccc(C(=O)Nc2nc(-c3ccccc3)nc3c2nnn3Cc2ccccc2)cc1 equals 6.03

The recorded pKi for entry COc1ccc(C(=O)Nc2nc(-c3ccccc3)nc3c2nnn3Cc2ccccc2)cc1 equals 5.28

The recorded pKi for entry O=C(Nc1nc(-c2ccccc2)nc2c1nnn2Cc1ccccc1)c1cccc(Cl)c1 equals 5.27

The recorded pKi for entry O=C(Nc1nc(-c2ccccc2)nc2c1nnn2Cc1ccccc1)c1cccs1 equals 5.64

The recorded pKi for entry Nc1nc(-c2ccccc2)nc2c1nnn2Cc1ccccc1 equals 5.37

The recorded pKi for entry O=C(Nc1nc(-c2ccccc2)nc2c1nnn2Cc1ccccc1)c1ccco1 equals 5.52

The recorded pKi for entry O=C(Nc1nc(-c2ccccc2)nc2c1nnn2Cc1ccccc1)C1CCC1 equals 5.52

The recorded pKi for entry O=C(Nc1nc(-c2ccccc2)nc2c1nnn2Cc1ccccc1)c1ccccc1F equals 5.28

The recorded pKi for entry O=C(Nc1nc(-c2ccccc2)nc2c1nnn2Cc1ccccc1)c1ccoc1 equals 5.79

The recorded pKi for entry O=C(Nc1nc(-c2ccccc2)nc2c1nnn2Cc1ccccc1)c1cccc([N+](=O)[O-])c1 equals 5.31

The recorded pKi for entry O=C(Nc1nc(-c2ccccc2)nc2c1nnn2Cc1ccccc1)c1ccc(C(F)(F)F)cc1 equals 5.38

The recorded pKi for entry O=C(Nc1nc(-c2ccccc2)nc2c1nnn2Cc1ccccc1)c1ccccc1C(F)(F)F equals 6.25
